# target: T1, human PD-L1 (human, UniProt Q9NZQ7 19-239, limits assumed)
# T1 construct: also called Hu PD-L1; hPD-L1
# T1 sequence (Q9NZQ7 19-239 limits assumed): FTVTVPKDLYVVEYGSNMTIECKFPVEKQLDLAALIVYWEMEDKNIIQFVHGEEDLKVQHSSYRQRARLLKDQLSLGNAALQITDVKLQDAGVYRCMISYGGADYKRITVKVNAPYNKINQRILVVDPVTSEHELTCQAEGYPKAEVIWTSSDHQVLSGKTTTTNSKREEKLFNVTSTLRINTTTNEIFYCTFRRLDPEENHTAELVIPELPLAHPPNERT
# procedure-text: cell binding assay, inhibition of Hu PD-L1/PD-1 binding
Positions of bridges follow the written chain, without caps; N, C: chain ends. Non-standard residues stand in square brackets, D forms with d. Phe(4-Cl) = N[C@@H](Cc1ccc(Cl)cc1)C(=O)O; NMeNle = CCCC[C@H](NC)C(=O)O; NMeA = CN[C@@H](C)C(=O)O; Sar = CNCC(=O)O
assay-metric: pIC50
The value called pIC50 is obtained by taking minus log10 of the concentration in mol/L.

Please give measured pIC50 of the following entry: {CH2CO}-[Phe(4-Cl)][NMeA]NPHL[Sar]WSW[NMeNle][NMeNle]RCG-NH2 (thioether N-14; SMILES CCCC[C@H]1C(=O)N(C)[C@@H](CCCC)C(=O)N[C@@H](CCCNC(=N)N)C(=O)N[C@H](C(=O)NCC(N)=O)CSCC(=O)N[C@@H](Cc2ccc(Cl)cc2)C(=O)N(C)[C@@H](C)C(=O)N[C@@H](CC(N)=O)C(=O)N2CCC[C@H]2C(=O)N[C@@H](Cc2c[nH]cn2)C(=O)N[C@@H](CC(C)C)C(=O)N(C)CC(=O)N[C@@H](Cc2c[nH]c3ccccc23)C(=O)N[C@@H](CO)C(=O)N[C@@H](Cc2c[nH]c3ccccc23)C(=O)N1C, macrocyclic peptide, Formula I series; also called Compound 33) [Compound No. 33]
8.15
